# System: Yellow fever virus
# method: Antiviral activity against IRES-luciferase tagged Yellow fever virus in BHK15 cells assessed as reduction of luciferase activity after 36 hrs
# Assay type: functional, organism-based
# condition-details: BHK15, 36 h
measured-property: pEC50
The read-out pEC50 is expressed as -log10 of concentration in moles per litre.

Note to self: pEC50 recorded for COC(=O)c1sc(-c2ccc(Cl)cc2)nc1C(Br)Br was 6.05

Looking up Nc1ccccc1SCc1csc(-c2ccc(Cl)cc2)n1 , I see its pEC50 listed as 4.51

Per the records, this molecule ( C/C(=N\NC(=N)N)c1ccc(NC(=O)Nc2nc(C)c(C(=O)NCc3ccc(Cl)cc3Cl)s2)cc1 ) has pEC50 equal to 4.42

Noted for COC(=O)c1sc(N(Cc2ccc(C(C)=O)cc2)Cc2ccc(C(C)=O)cc2)nc1C : its pEC50 reads 4.60
